biological target: Calpain-1 catalytic subunit (Homo sapiens, UniProt P07384); assay: Competitive inhibition of human erythrocytes mu-calpain using varying level of Pep2 as substrate by Lineweaver-Burk plot analysis
Sequence (P07384 whole entry): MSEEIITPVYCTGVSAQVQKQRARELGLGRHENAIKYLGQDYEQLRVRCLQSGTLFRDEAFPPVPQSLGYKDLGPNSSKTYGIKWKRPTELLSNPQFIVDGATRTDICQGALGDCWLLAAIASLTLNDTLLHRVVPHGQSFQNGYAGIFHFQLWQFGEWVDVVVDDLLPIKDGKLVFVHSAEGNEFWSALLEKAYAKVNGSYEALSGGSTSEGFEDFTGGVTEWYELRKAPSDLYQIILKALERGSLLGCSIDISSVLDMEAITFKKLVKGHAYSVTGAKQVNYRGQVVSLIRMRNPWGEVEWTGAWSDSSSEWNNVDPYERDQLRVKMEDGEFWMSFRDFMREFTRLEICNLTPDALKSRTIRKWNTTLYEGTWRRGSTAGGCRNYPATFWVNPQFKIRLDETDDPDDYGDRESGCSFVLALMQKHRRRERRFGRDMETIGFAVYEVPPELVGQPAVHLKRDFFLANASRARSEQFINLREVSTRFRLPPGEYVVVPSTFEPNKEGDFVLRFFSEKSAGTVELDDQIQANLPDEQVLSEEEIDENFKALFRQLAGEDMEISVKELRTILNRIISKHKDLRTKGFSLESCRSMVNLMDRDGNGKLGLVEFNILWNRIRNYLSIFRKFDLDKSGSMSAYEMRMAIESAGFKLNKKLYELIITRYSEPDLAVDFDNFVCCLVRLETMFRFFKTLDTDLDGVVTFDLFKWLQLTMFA
Reported endpoint: Ki (µM)

[P] COc1cc(/C=C/C=C/C(=O)c2ccc(O)cc2)ccc1O
[Q] O=C(/C=C/c1ccc(O)c2ccccc12)c1ccc(O)cc1O
Please indicate which has the smaller reported Ki: P , or Q . // output: label of the selected item
P

====

target: UniProt P07711
Sequence (P07711 whole entry): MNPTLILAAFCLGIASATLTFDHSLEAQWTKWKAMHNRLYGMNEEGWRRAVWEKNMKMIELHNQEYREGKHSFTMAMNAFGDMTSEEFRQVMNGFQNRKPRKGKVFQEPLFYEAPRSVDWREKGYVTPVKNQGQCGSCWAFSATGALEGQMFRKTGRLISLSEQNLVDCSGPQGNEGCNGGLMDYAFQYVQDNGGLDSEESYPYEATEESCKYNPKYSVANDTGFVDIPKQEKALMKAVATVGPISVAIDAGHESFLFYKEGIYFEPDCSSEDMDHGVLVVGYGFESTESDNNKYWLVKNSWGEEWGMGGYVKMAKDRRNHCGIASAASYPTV
pIC50: −log10 of the molar value.
Reported endpoint: pIC50

Examples with answers:
Item smiles	Value reported
O=C(/C=C/c1ccc(O)c2ccccc12)c1ccc(O)cc1O	4.83
O=C(/C=C/c1ccc(O)c2ccccc12)c1ccco1	4.48
COc1ccc(/C=C/C(=O)c2ccc(O)cc2)c2ccccc12	4.59
COc1ccccc1/C=C/C=C/C(=O)c1ccc(O)cc1	4.58
O=C(/C=C/c1ccc(O)c2ccccc12)c1cccs1	4.45
CCOc1cc(O)ccc1C(=O)/C=C/C=C/c1ccccc1OC	4.57

[P] CCCC[C@@H](C=O)NC(=O)[C@H](CC(C)C)NC(=O)OCc1ccccc1
[Q] COc1cc(/C=C/C=C/C(=O)c2ccc(O)cc2)ccc1O
Please indicate which has the smaller reported pIC50: P , or Q . // output: label of the selected item
Q
(Q: 4.79, P: 7.14)
